# formation rate of … (SEQ ID NO: 19)(%) annotations
molecular target: Endoplasmic reticulum aminopeptidase 1 (ERAP1) (UniProt Q9NZ08 1-941, limits assumed); assay: cell-based or functional assay
Sequence (Q9NZ08 whole entry): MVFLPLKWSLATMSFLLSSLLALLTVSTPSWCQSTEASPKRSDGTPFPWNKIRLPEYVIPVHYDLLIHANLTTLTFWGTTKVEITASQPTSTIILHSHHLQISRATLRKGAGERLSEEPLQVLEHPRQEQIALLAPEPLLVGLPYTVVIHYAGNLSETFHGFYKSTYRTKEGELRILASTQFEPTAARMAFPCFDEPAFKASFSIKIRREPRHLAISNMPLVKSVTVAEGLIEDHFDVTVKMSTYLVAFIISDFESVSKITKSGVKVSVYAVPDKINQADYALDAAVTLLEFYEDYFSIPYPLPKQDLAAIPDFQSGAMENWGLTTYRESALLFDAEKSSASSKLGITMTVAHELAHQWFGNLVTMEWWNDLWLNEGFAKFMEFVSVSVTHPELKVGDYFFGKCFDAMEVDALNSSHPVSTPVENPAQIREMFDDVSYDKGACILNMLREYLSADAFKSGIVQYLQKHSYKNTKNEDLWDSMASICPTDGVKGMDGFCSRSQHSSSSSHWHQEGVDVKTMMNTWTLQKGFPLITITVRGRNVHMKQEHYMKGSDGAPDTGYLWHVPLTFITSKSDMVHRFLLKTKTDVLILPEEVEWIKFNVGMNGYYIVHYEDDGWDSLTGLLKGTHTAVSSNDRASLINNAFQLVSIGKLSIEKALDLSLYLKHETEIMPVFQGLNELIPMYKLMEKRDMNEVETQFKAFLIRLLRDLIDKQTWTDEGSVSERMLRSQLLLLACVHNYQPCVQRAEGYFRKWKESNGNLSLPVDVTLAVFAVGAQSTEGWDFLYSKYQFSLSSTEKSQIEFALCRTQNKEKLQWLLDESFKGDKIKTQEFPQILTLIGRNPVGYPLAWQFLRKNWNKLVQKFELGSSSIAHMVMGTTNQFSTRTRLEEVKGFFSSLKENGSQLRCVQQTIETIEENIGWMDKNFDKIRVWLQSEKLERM
# value in %; strip the unit string

Recorded formation rate of … (SEQ ID NO: 19)(%), per entry:
binder	recorded.value
GCGLYDGMEHL [peptide GCGLYDGMEHL (SEQ ID NO: 190)]	10.4
MCGLYDGMEHL [peptide MCGLYDGMEHL (SEQ ID NO: 195)]	5.8
ICGLYDGMEHL [peptide ICGLYDGMEHL (SEQ ID NO: 192)]	0

QUERY: Please supply the value of reported formation rate of … (SEQ ID NO: 19)(%) for the item LCGLYDGMEHL [peptide LCGLYDGMEHL (SEQ ID NO: 193)]
RESULT: 0
